- Assay system: T1, human IL-12Rβ2 (human, UniProt Q99665 24-862)
- T1 construct: Expressed on HEK293T cells transiently transfected with a pcDNA3 plasmid (Genscript clone OHu21785); also called hIL-12RB2; IL-12 receptor β2 subunit
- T1 sequence: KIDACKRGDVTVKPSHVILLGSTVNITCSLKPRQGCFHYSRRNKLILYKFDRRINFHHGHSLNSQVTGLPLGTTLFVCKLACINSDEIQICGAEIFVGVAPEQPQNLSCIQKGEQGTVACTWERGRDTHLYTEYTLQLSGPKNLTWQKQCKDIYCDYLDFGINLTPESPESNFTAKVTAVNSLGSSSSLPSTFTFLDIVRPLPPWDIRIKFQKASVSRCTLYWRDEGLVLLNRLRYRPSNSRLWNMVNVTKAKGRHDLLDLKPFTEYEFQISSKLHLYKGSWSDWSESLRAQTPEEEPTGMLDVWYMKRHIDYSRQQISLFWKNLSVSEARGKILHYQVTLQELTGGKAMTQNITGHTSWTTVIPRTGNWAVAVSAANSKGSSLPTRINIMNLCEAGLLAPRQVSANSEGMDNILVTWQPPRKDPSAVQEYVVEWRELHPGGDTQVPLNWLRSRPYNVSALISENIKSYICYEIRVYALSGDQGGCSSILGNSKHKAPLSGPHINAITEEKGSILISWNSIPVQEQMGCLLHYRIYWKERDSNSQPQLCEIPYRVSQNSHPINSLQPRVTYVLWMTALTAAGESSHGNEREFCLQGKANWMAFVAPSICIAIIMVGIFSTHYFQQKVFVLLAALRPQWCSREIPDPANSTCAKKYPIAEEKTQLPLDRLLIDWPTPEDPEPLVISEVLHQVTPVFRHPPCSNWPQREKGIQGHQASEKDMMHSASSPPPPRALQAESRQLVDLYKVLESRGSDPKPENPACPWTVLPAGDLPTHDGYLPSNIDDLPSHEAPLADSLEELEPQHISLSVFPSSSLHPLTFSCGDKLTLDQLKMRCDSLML
- Experiment summary: flow cytometry, P.E. on transfected HEK293T cells
Catalogue of binders with associated dMFI
Response field accepts a number only; no unit should be typed.

- Binder: "anti-IL-12Rβ2 VHH clone 3CAHM40 (VHH, not shown: small tags and cut ends, periplasmic extract) VHH: QVQLQESGGGSVQAGGSLRLSCAVSGRTVSDYAMGWFRQAPGKEREFVAAMSSSETTVYPNSMKGRITISRDNAKNAVYLQLNALKPEDTAVYYCSMGPIATFQGLARQNEYHYWGQGTQVTVSS"
  dMFI: 544

Enquiry: Reported dMFI, binder anti-IL-12Rβ2 VHH clone 3CAH34 (VHH, not shown: small tags and cut ends, periplasmic extract; also called 20358) VHH: QVQLQESGGGSVQPGGSLRLSCGASGFTFSSFGMHWFRQAPGKGQEWAATISSSGGTTYYSDSVKGRFTISRDNAKNTLYLQMNSLKPEDTALYYCARDVTGAVRGQGTQVTVSS : ____
Return: 620
